Cited source: patent US20120128630A1

Target: HCV NS5B genotype 1b (Hepatitis C virus genotype 1b)
Construct: The protein was expressed with a 21 amino acid C-terminal deletion to remove transmembrane domain; expressed in transfected cells; host or cells: Huh-7
Assay: 3D-SCREEN assay (NS5B 3D-Screen platform, luciferase reporter gene)
Format: cell-based
Settings: EC50_3DS_NS5B, Table 2, titled Replicon assay results
MEASURED PARAMETER: EC50

| COMPOUND | MEASURED |
| --- | --- |
| C=C(C)c1ccc(C(=O)C2=C(O)C(=O)N(c3ccc(C)nn3)C2c2ccc(OC(F)(F)F)cc2)cc1 (stereo not shown) | < 1 µM |
| Cc1ccc(N2C(=O)C(O)=C(C(=O)c3ccc(C(F)(F)F)cc3)C2c2ccc(C(F)(F)F)cc2)nn1 (stereo not shown) | < 10 µM |
| Cc1ccc(N2C(=O)C(O)=C(C(=O)c3ccc(C#N)cc3)C2c2ccc(OC(F)(F)F)cc2)nn1 (stereo not shown) | < 10 µM |
| COCCOc1ccc(C(=O)C2=C(O)C(=O)N(c3ccc(C)nn3)C2c2ccc(OC(F)(F)F)cc2)cc1 (stereo not shown) | < 10 µM |
| Cc1ccc(N2C(=O)C(O)=C(C(=O)c3ccc(C(C)C)cc3)C2c2ccc(SC(C)C)cc2)nn1 (stereo not shown) | < 1 µM |
| Cc1ccc(N2C(=O)C(O)=C(C(=O)c3ccc(C(C)C)cc3)[C@H]2c2ccc(OC(F)(F)F)cc2)nn1 | < 0.1 µM |
| Cc1ccc(N2C(=O)C(O)=C(C(=O)c3ccc(N4CCCC4)cc3)C2c2ccc(OC(F)(F)F)cc2)nn1 (stereo not shown) | < 10 µM |

---

Biological target: HCV NS5B genotype 1b (Hepatitis C virus genotype 1b)
Construct: The protein was expressed with a 21 amino acid C-terminal deletion to remove transmembrane domain; expressed in transfected cells; host or cells: Huh-7
Assay: 3D-SCREEN assay (NS5B 3D-Screen platform, luciferase reporter gene)
Assay type: cell-based
Settings: EC50_3DS_NS5B, Table 2, titled Replicon assay results
pEC50: −log10 of the molar value.
MEASURED PARAMETER: pEC50

| COMPOUND | MEASURED |
| --- | --- |
| Cc1ccc(N2C(=O)C(O)=C(C(=O)c3ccc(C(C)C)cc3)[C@H]2c2ccc(C(F)(F)F)nc2)nn1 [Example 195] | > 6.00 |
| Cc1ccc(N2C(=O)C(O)=C(C(=O)c3ccc(OC(F)(F)F)cc3)C2c2ccc(C(C)C)cc2)cn1 (centres unmarked) [Example 94] | > 5.00 |
| CC(C)c1ccc(C(=O)C2=C(O)C(=O)N(c3ccc(Cl)nn3)C2c2ccc(OC(F)(F)F)cc2)cc1 (centres unmarked) [Example 118] | > 6.00 |
| Cc1ccc(N2C(=O)C(O)=C(C(=O)c3ccc(N4CCCC4)cc3)C2c2ccc(OC(C)(F)F)cc2)nn1 (centres unmarked) [Example 183] | > 5.00 |
| CC(C)c1ccc(C(=O)C2=C(O)C(=O)N(c3ccc(OCc4ccccc4)nn3)C2c2ccc(OC(F)(F)F)cc2)cc1 (centres unmarked) [Example 161] | > 6.00 |
| Cc1ccc(N2C(=O)C(O)=C(C(=O)c3ccc(C(C)C)cc3)C2c2ccc(OC(C)C)cc2)nn1 (centres unmarked) [Example 89] | > 5.00 |
| Cc1ccc(N2C(=O)C(O)=C(C(=O)c3ccc(C(C)C)cc3)[C@H]2c2ccc(C(C)(F)F)cc2)nn1 [Example 196] | > 6.00 |
| CCOc1ccc(C2C(C(=O)c3ccc(C(C)C)cc3)=C(O)C(=O)N2c2ccc(C)nn2)cn1 (centres unmarked) [Example 110] | > 6.00 |
| CCOc1ccc(C2C(C(=O)c3ccc(C(C)C)cc3)=C(O)C(=O)N2c2ccc(C)nn2)cc1 (centres unmarked) [Example 104] | > 6.00 |
| Cc1ccc(N2C(=O)C(O)=C(C(=O)c3ccc(C(C)C)cc3)C2c2ccc(OC(C)(C)C)cc2)nn1 (centres unmarked) [Example 90] | > 5.00 |
| Cc1ccc(N2C(=O)C(O)=C(C(=O)c3ccc(OC(C)C)cc3)C2c2ccc(OC(C)C)cc2)nn1 (centres unmarked) [Example 109] | > 5.00 |
| Cc1ccc(N2C(=O)C(O)=C(C(=O)c3ccc(C(C)C)cc3)C2c2ccc(Br)cc2)nn1 (centres unmarked) [Example 172] | > 6.00 |
| Cc1ccc(N2C(=O)C(O)=C(C(=O)c3ccc(C(C)C)cc3)[C@@H]2c2ccc(C(C)(F)F)cc2)nn1 [Example 197] | > 5.00 |
| COc1ccc(N2C(=O)C(O)=C(C(=O)c3ccc(C(C)C)cc3)C2c2ccc(OC(F)(F)F)cc2)nn1 (centres unmarked) [Example 129] | > 6.00 |
| Cc1cnc(N2C(=O)C(O)=C(C(=O)c3ccc(C(C)C)cc3)C2c2ccc(OC(F)(F)F)cc2)cn1 (centres unmarked) [Example 128] | > 6.00 |
| CCOc1ccc([C@@H]2C(C(=O)c3ccc(C(C)C)cc3)=C(O)C(=O)N2c2ccc(C)nn2)cn1 [Example 192] | > 6.00 |
| Cc1ccc(N2C(=O)C(O)=C(C(=O)c3ccc(C(C)C)cc3)C2c2ccc(C(F)(F)F)nc2)nn1 (centres unmarked) [Example 98] | > 5.00 |
| Cc1ccc(N2C(=O)C(O)=C(C(=O)c3ccc(C(C)C)cc3)[C@@H]2c2ccc(C(F)(F)F)cc2)nn1 [Example 190] | > 5.00 |
| Cc1ccc(N2C(=O)C(O)=C(C(=O)c3ccc(C(C)C)cc3)C2c2ccc(C(C)C)cn2)nn1 (centres unmarked) [Example 111] | > 5.00 |
| Cc1ccc(N2C(=O)C(O)=C(C(=O)c3ccc(C(C)C)cc3)C2c2ccc(Oc3cc(C)on3)cc2)nn1 (centres unmarked) [Example 185] | > 5.00 |
| Cc1ccc(N2C(=O)C(O)=C(C(=O)c3ccc(C(C)C)cc3)C2c2ccc(CC(C)C)cc2)nn1 (centres unmarked) [Example 136] | > 5.00 |
| CCOc1ccc(C(=O)C2=C(O)C(=O)N(c3ccc(C)nn3)C2c2ccc(OC(F)(F)F)cc2)cc1 (centres unmarked) [Example 101] | > 5.00 |
| CC(C)c1ccc(C(=O)C2=C(O)C(=O)N(c3ccc(Sc4ccc([N+](=O)[O-])cc4)nn3)C2c2ccc(OC(F)(F)F)cc2)cc1 (centres unmarked) [Example 119] | > 6.00 |
| C#Cc1ccc(C2C(C(=O)c3ccc(C(C)C)cc3)=C(O)C(=O)N2c2ccc(C)nn2)cc1 (centres unmarked) [Example 137] | > 5.00 |
| Cc1ccc(N2C(=O)C(O)=C(C(=O)c3ccc(C(C)C)cc3)C2c2ccc(C(F)(F)F)cn2)nn1 (centres unmarked) [Example 106] | > 5.00 |
| Cc1ccc(N2C(=O)C(O)=C(C(=O)c3ccc(C(C)C)cc3)[C@@H]2c2ccc(C(F)(F)F)nc2)nn1 [Example 194] | > 5.00 |
| Cc1ccc(N2C(=O)C(O)=C(C(=O)c3ccc(CC(C)C)cc3)C2c2ccc(OC(F)(F)F)cc2)nn1 (centres unmarked) [Example 131] | > 6.00 |
| Cc1ccc(C(=O)C2=C(O)C(=O)N(c3ccc(C)nn3)[C@@H]2c2ccc(OC(F)(F)F)cc2)cc1 [Example 199] | > 6.00 |
| Cc1ccc(N2C(=O)C(O)=C(C(=O)c3ccc(C(C)C)cc3)C2c2ccc(OC(C)C)cn2)nn1 (centres unmarked) [Example 121] | > 5.00 |

---

Target: HCV NS5B genotype 1b (Hepatitis C virus genotype 1b, UniProt Q9WMX2)
Construct: The protein was expressed with a 21 amino acid C-terminal deletion to remove transmembrane domain; expressed in transfected cells; host or cells: Huh-7
Assay: 3D-SCREEN assay (NS5B 3D-Screen platform, luciferase reporter gene)
Type: cell-based
Conditions: EC50_3DS_NS5B, Table 1, 3D-SCREEN assay results; Huh-7 cells, 24 hours with compound, firefly luciferase reporter
Rule: measured EC50 below 2 µM gets criterion met; anything equal to or greater than 2 µM gets criterion not met.

| COMPOUND | ASSIGNED CATEGORY |
| --- | --- |
| CC(=O)OC1=C(C(=O)c2ccc(C(C)C)cc2)C(c2ccc(C(C)C)cc2)N(c2ccc(C)nn2)C1=O (stereo not drawn) [Example 56] | criterion met |
| Cc1ccc(C(=O)C2=C(O)C(=O)N(c3ccc(C)nn3)C2c2ccc(C(F)(F)F)cc2)cc1 (stereo not drawn) [Example 18] | criterion met |
| Cc1ccc(C(=O)C2=C(O)C(=O)N(c3ccc(C)nn3)C2c2ccc(OC(F)(F)F)cc2)cc1 (stereo not drawn) [Example 22] | criterion met |
| COCCON=C(C1=C(O)C(=O)N(c2ccc(C)nn2)C1c1ccc(OC(F)(F)F)cc1)c1ccc(C(C)C)cc1 (mixture of isomers) [Example 84] | criterion not met |
| COc1ccc(C(=O)C2=C(O)C(=O)N(c3ccc(C)nn3)C2c2ccc(OC(F)(F)F)cc2)cc1 (stereo not drawn) [Example 23] | criterion met |
| COc1ccc(C2C(C(=O)c3ccc(OC(F)(F)F)cc3)=C(O)C(=O)N2c2ccc(C)nn2)cc1 (stereo not drawn) [Example 24] | criterion not met |
| Cc1ccc(N2C(=O)C(O)=C(C(=NOCC(=O)O)c3ccc(C(C)C)cc3)C2c2ccc(OC(F)(F)F)cc2)nn1 (mixture of isomers) [Example 83] | criterion not met |
| COc1ccc(C2C(C(=O)c3ccc(C(C)C)cc3)=C(O)C(=O)N2c2ccc(C)nn2)cc1 (stereo not drawn) [Example 62] | criterion met |
| Cc1ccc(N2C(=O)C(O)=C(C(=O)c3ccc(C(C)C)cc3)C2c2ccc(N3CCOCC3)cc2)nn1 (stereo not drawn) [Example 58] | criterion not met |
| Cc1ccc(C(=O)C2=C(O)C(=O)N(c3ccc(C)nn3)C2c2ccc(-c3ccccc3)cc2)cc1 (stereo not drawn) [Example 42] | criterion not met |
| CC(=O)OC1=C(C(=O)c2ccc(C)cc2)C(c2ccc(OC(F)(F)F)cc2)N(c2ccc(C)nn2)C1=O (stereo not drawn) [Example 76] | criterion met |
| Cc1ccc(C(=O)C2=C(O)C(=O)N(c3ccccn3)C2c2ccc(C(C)(C)C)cc2)cc1 (stereo not drawn) [Example 2] | criterion not met |
| Cc1ccc(C(=O)C2=C(O)C(=O)N(c3ccc(C)nn3)C2c2cccc(C(C)C)c2)cc1 (stereo not drawn) [Example 29] | criterion not met |
